- experiment.notes: solvent given as SMILES
- particulars: in OCCO
property.label: emission maximum (nm)
Please give a number only; it is taken to be in nm.

Consider the worked cases shown below.
compound=Oc1ccc(/N=C/c2ccccc2Oc2ccccc2)cc1 property_label="emission maximum" quantitative_readout=405
compound=CCc1ccc(/C=N/c2cc(C(C)C)c(O)cc2C)cc1 property_label="emission maximum" quantitative_readout=429
compound=CN(C)c1ccc(/C=C/C=C/c2nc3ccccc3o2)cc1 property_label="emission maximum" quantitative_readout=562

Query compound follows.
Prompt: Field request: emission maximum | item: NC(=O)Cc1cccc2ccccc12
Completion: 325

----------
- experiment.notes: solvent given as SMILES
- particulars: in ClC(Cl)Cl
property.label: emission maximum (nm)
Quick reminder: number only, in nm, skip the unit.

Sample records with emission maximum:
smiles_string=CC1=CC(C)=[N+]2C1=C(c1ccc(I)cc1)c1c(C)cc(C)n1[B-]2(F)F property_label="emission maximum" quantitative_readout=517.73
smiles_string=CC(C)(C)c1ccc2oc3nc4oc5ccc(N6c7ccccc7Sc7ccccc76)cc5c4cc3c2c1 property_label="emission maximum" quantitative_readout=371
smiles_string=C[Si](C)(C)C#CC(C#C[Si](C)(C)C)=Cc1ccc(C=C(C#C[Si](C)(C)C)C#C[Si](C)(C)C)s1 property_label="emission maximum" quantitative_readout=475

Next, consider the following compound.
Prompt: // emission maximum lookup, key: F[B-]1(F)n2cccc2C(c2ccccc2)=C2C=CC(c3ccc(OC4=[N+]5C(=C(c6ccccc6)c6cc(Br)c(Br)n6[B-]5(F)F)C=C4Br)cc3)=[N+]21
Completion: 574

----------
- experiment.notes: solvent given as SMILES
- particulars: in C1CCOC1
Collected emission maximum values appear next to each entry.
Response body: numeric value in nm, unit text excluded.

Here is how some compounds turned out for emission maximum.
smiles_string=CCC1=C(C)C2=C(c3cc(C4=C5C(C)=C(CC)C(C)=[N+]5[B-](F)(F)n5c(C)c(CC)c(C)c54)cc(C4=C5C(C)=C(CC)C(C)=[N+]5[B-](F)(F)n5c(C)c(CC)c(C)c54)c3)c3c(C)c(CC)c(C)n3[B-](F)(F)[N+]2=C1C quantitative_readout=567
smiles_string=N#Cc1ccc(/C=C/c2ccc(C=C(c3ccccc3)c3ccccc3)cc2)cc1 quantitative_readout=456
smiles_string=Cc1ccc(C(=O)NN2C3=C(CC4=C2CCCC4=O)C(=O)CCC3)cc1 quantitative_readout=435

Prompt: Could you share which emission maximum value was measured for CN(C)c1ccc(-c2ccc(-c3ccc(N(C)C)cc3)c3nc(-c4ccccc4)c(-c4ccccc4)nc23)cc1 ?
Completion: 601

----------
# maps each entry to its emission maximum
- experiment.notes: solvent given as SMILES
- particulars: in C1COCCO1
Provide only the numeric value, understood in nm.

compound=COc1nc(Cl)nc(Nc2ccc3c4cccc5cccc(c6cccc2c63)c54)n1 units=nm quantitative_readout=479
compound=Clc1nc(Cl)nc(Nc2ccc3c4cccc5cccc(c6cccc2c63)c54)n1 units=nm quantitative_readout=472
compound="COc1ccc(/C=C/C=C/C2=NC3C(=O)NC(N)=NC3N2[C@H]2C[C@H](O)[C@@H](CO)O2)cc1 (some centres undefined)" units=nm quantitative_readout=429
compound=CC(C)(C)c1ccc(-c2nc3c4ccc(-c5c6ccccc6cc6ccccc56)cc4c4cc(-c5c6ccccc6cc6ccccc56)ccc4c3n2-c2ccc(C(C)(C)C)cc2)cc1 units=nm quantitative_readout=429

Prompt: For O=C1Nc2ccccc2/C1=C/C(=O)c1ccc(O)cc1 , what is its reported emission maximum?
Completion: 399

Prompt: Give the measured emission maximum of CC(C)(C)c1ccc(-c2nc3c4ccc(-c5cccc6ccccc56)cc4c4cc(-c5cccc6ccccc56)ccc4c3n2-c2ccc(C(C)(C)C)cc2)cc1 .
Completion: 385

Prompt: Name the recorded emission maximum for NC(=O)Cc1cccc2ccccc12 .
Completion: 326

Prompt: emission maximum lookup needed for COC(=O)CNC(=O)c1nc2c(N(C)C)nc(N(C)C)nc2n1Cc1ccccc1 , thanks.
Completion: 397

----------
Below, each of the compounds is paired with its reported emission maximum value.
- experiment.notes: solvent given as SMILES
- particulars: in O
Answer format: numeric, nm implied, no suffix.

Example cases with answers are listed next.
smiles_string=CCCN1/C(=C/C=C(/C=C/C2=[N+](CCC)c3ccccc3C2(C)C)c2ccncc2)C(C)(C)c2ccccc21 property_label="emission maximum" units=nm quantitative_readout=658
smiles_string=CC1(C)C(/C=C/C=C/c2cc3ccc(O)cc3oc2=O)=[N+](CCCS(=O)(=O)[O-])c2ccccc21 property_label="emission maximum" units=nm quantitative_readout=720
smiles_string=Oc1ccc2ccccc2c1 property_label="emission maximum" units=nm quantitative_readout=351
smiles_string=Oc1ccccc1-c1nc2ccccc2s1 property_label="emission maximum" units=nm quantitative_readout=463
smiles_string=NC(=O)Cc1cccc2ccccc12 property_label="emission maximum" units=nm quantitative_readout=324

Attention now shifts to the item below.
Prompt: State the recorded emission maximum for this entry: O=S(=O)([O-])c1ccc2c([O-])cc(S(=O)(=O)[O-])cc2c1
Completion: 485

----------
- experiment.notes: solvent given as SMILES
- particulars: in CC#N
property.label: emission maximum (nm)
// return numeric value only (unit: nm, not printed)

Please review the entries below; each comes with its answer.
molecule=Cc1ccc(-c2ccc(/C=C/c3ccc(F)cc3)cn2)nc1 quantitative_readout=391
molecule="C[P+]1(c2ccccc2)C2=C(c3ccccc31)S(=O)(=O)c1ccccc12 (stereo unspecified)" quantitative_readout=479

Prompt: Recorded emission maximum for CC1=C(/C=C/c2ccccc2)C2=Cc3c(/C=C/c4ccccc4)c(C)c(C)n3[B-](F)(F)[N+]2=C1C , please?
Completion: 589

Prompt: Could you tell me which emission maximum is on file for COc1ccc2c(c1)C(=O)c1cc(OC)cc(OC)c1-2 ?
Completion: 628

Prompt: For the molecule shown here, CN(C)c1ccc(C#Cc2ccc(-c3cc(N(C)C)c4ccccc4c3)cc2)cc1 , give the reported emission maximum.
Completion: 497.02

Prompt: Return reported emission maximum; argument: COc1ccc(-c2csc(/C(C#N)=C\Nc3ccc(C#N)cc3)n2)cc1
Completion: 451

Prompt: I would be grateful if you could share the reported emission maximum for CN1CCN(CCCN2c3ccccc3Sc3ccc(Cl)cc32)CC1 .
Completion: 449

Prompt: Recorded emission maximum for CCCn1c2cccc3oc4cccc5oc6cccc1c6[c+](c45)c32 , please?
Completion: 560

----------
- experiment.notes: solvent given as SMILES
- particulars: in ClCCl
property.label: emission maximum (nm)
Report as a plain number; the unit nm is understood.

compound="CCC1=C(C)C2=Cc3c4ccccc4c4n3[B-](c3ccncc3)(Oc3ccccc3-4)[N+]2=C1C=Cc1ccc(OC)cc1 (stereo not drawn)" units=nm quantitative_readout=717
compound=F[B-]1(F)n2cccc2C(c2ccccc2)=C2C=CC=[N+]21 units=nm quantitative_readout=522
compound=CCCCOc1c(Br)cc2cc(Br)c(OCCCC)c3c4c(OCCCC)c(Br)cc5cc(Br)c(OCCCC)c(c1c23)c54 units=nm quantitative_readout=489

Prompt: Name the recorded emission maximum for O=[N+]([O-])c1ccc(C#Cc2ccc3ccc(C#Cc4ccc([N+](=O)[O-])cc4)cc3c2)cc1 .
Completion: 527

Prompt: Please look up its emission maximum: CCC1(CC)c2ccccc2-c2ccc(C#Cc3ccc4ccc5cccc6ccc3c4c56)cc21
Completion: 412

Prompt: Requested field: emission maximum. Item: C=CCNc1ccc2ccc3oc4cc(=[N+]5CCCC5)ccc-4nc3c2c1
Completion: 622

Prompt: Find the recorded emission maximum belonging to CCn1c2ccc(/C=C/c3ccc4c(c3)c3cc(-c5nc6ccccc6s5)ccc3n4CC)cc2c2cc(-c3nc4ccccc4s3)ccc21 and report it.
Completion: 442

Prompt: Sample CCN(CC)c1ccc2c(c1)oc(=O)c1cc3cnn(-c4ccccc4)c3nc12 — what was its emission maximum?
Completion: 501

Prompt: Looking for the measured emission maximum of CN(C)c1cc(-c2ccc(C#Cc3ccccc3)cc2)cc2ccccc12 , can you help?
Completion: 470

Prompt: Field request: emission maximum | item: CCCCC(CC)Cn1c2cc(C#N)ccc2c2ccc(C#Cc3ccc4ccc5ccc(C#Cc6ccc7c8ccc(C#N)cc8n(CC(CC)CCCC)c7c6)c6ccc3c4c56)cc21 (stereo not drawn)
Completion: 458

----------
- experiment.notes: solvent given as SMILES
- particulars: in Cc1ccccc1
Respond with label 1 for emission maximum values of 600 nm and above, label 0 for values below.

Record excerpt, results attached:
smiles_string=COC(=O)/C(C#N)=c1\s/c(=c2/s/c(=C(/C#N)C(=O)OC)c3cc(-c4ccc(F)cc4)sc23)c2sc(-c3ccc(F)cc3)cc12 class_label="label 1"
smiles_string=COCCC1=Cc2nc1ccc1[nH]c(cc1CCOC)c1nc(c(OC)cc3[nH]c2cc3CCOC)C(CCOC)=C1 class_label="label 1"
smiles_string=Cc1cc(C)c2c(c1)c1cc(C)cc(C)c1n2-c1ccc2c(c1)Oc1ccccc1B2c1c(C(C)C)cc(C(C)C)cc1C(C)C class_label="label 0"
smiles_string=O=P(c1ccccc1)(c1ccccc1)n1c2ccccc2c2ccccc21 class_label="label 0"
smiles_string=CCOC(=O)COc1ccc(/C=C/C2=C3c4ccccc4C(c4ccc[nH]4)=[N+]3[B-](F)(F)n3ccc(C)c32)cc1 class_label="label 1"

Prompt: Record c1ccc(-c2nnc(-c3cc(-n4c5ccccc5c5ccccc54)c(-n4c5ccccc5c5ccccc54)cc3-c3nnc(-c4ccccc4)o3)o2)cc1 ; criterion: emission maximum no lower than 600 nm. Met?
Completion: label 0

Prompt: Check the entry CCn1c2ccccc2c2cc(C#Cc3cc(C#Cc4ccc5c(c4)c4ccccc4n5CC)nc(C#N)n3)ccc21 : does emission maximum equal or exceed 600 nm?
Completion: label 0

Prompt: Decide: is the reported value of emission maximum for COc1ccc(C2=CC(c3ccc4cc(N(C)C)ccc4c3)=[O+][B-](F)(F)O2)cc1 equal to or greater than 600 nm?
Completion: label 0
